B1: Regulatory protein RapF (Bacillus subtilis), P71002 (parent)
chain: MTGVISSSSIGEKINEWYMYIRRFSIPDAEYLRREIKQELDQMEEDQDLHLYYSLMEFRHNLMLEYLEPLEKMRIEEQPRLSDLLLEIDKKQARLTGLLEYYFNFFRGMYELDQREYLSAIKFFKKAESKLIFVKDRIEKAEFFFKMSESYYYMKQTYFSMDYARQAYEIYKEHEAYNIRLLQCHSLFATNFLDLKQYEDAISHFQKAYSMAEAEKQPQLMGRTLYNIGLCKNSQSQYEDAIPYFKRAIAVFEESNILPSLPQAYFLITQIHYKLGKIDKAHEYHSKGMAYSQKAGDVIYLSEFEFLKSLYLSGPDEEAIQGFFDFLESKMLYADLEDFAIDVAKYYHERKNFQKASAYFLKVEQVRQLIQGGVSLYEIEV
partner: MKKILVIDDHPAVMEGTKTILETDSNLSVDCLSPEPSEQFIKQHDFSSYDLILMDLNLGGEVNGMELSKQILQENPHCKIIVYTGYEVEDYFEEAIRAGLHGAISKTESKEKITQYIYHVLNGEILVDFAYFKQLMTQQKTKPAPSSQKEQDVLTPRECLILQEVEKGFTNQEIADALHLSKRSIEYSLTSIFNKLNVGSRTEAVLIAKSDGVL

variants of: B1; settings: with cmpa_bacsu comA
REPORTED_PROPERTY: effect of a mutation on the interaction

Field: example entries. Status: answers known.
effect of a mutation on the interaction for "Q78A" is decreasing interaction

effect of a mutation on the interaction for "D28A" is disrupting interaction

effect of a mutation on the interaction for "L67A" is disrupting interaction

effect of a mutation on the interaction for "F24A" is disrupting interaction

Next item in the queue.
effect of a mutation on the interaction for "P27A" is decreasing interaction

Source of measurements: IntAct's records for PubMed 22215984
